Could you please report measured inhibition of growth at 5 µM for the items listed next?
tested on: BXPC-3; experiment: Cytotoxicity against human BxPC3 cells at 5 uM; assay type: functional; settings: read-out: GI
Answers are plain numbers, in %.

Consider the worked cases shown below.
CC[C@@H]1NC(=O)[C@H](CCCNC(=N)N)NC(=O)[C@H]2CCCN2C(=O)[C@@H]2Cc3ccccc3CN2C1=O: 0
CC[C@@H]1NC(=O)[C@H](CCCNC(=N)N)NC(=O)[C@H]2CCCN2C(=O)[C@@H](Cc2ccccc2)NC1=O: 17
CC[C@@H]1NC(=O)[C@H](CCCCNC(C)=O)NC(=O)[C@H]2CCCN2C(=O)[C@H](Cc2ccccc2)NC1=O: 38
CC[C@@H]1NC(=O)[C@H](CCCNC(=N)N)NC(=O)[C@H]2CCCN2C(=O)[C@H](Cc2ccccc2)NC1=O: 27
CC[C@@H]1NC(=O)[C@H](CCCCNC(C)=O)NC(=O)[C@H]2CCCN2C(=O)[C@H](Cc2ccccc2)N(C)C1=O: 19

Dear colleague, could you please provide inhibition of growth at 5 µM for the compounds listed below?
1. CC[C@@H]1NC(=O)[C@H](CCCNC(=N)N)NC(=O)[C@H]2CCCCN2C(=O)[C@@H](Cc2ccccc2)NC1=O
2. CCC(=O)CCCCC[C@@H]1NC(=O)[C@H]2CCCCN2C(=O)[C@H]([C@@H](C)CC)NC(=O)[C@H](Cc2cn(OC)c3ccccc23)NC1=O

1. 20
2. 98
